molecular target: T1, HLA-A*02:01 (human); experiment: UV peptide-exchange ELISA
T1 construct: MHC class I monomer of the UV-ligand exchange assay; also called peptide-receptive MHC molecules; MHC class I

{"binder": "GQGEVLVYV", "peptide exchange yield": "50 to 75%"}
{"binder": "HMQDVRVLL", "peptide exchange yield": "50 to 75%"}
{"binder": "GLLEVISALQL", "peptide exchange yield": "50 to 75%"}
{"binder": "LMADLEGLHL", "peptide exchange yield": "50 to 75%"}
{"binder": "KLLESVASA", "peptide exchange yield": "50 to 75%"}
{"binder": "VLIEDELEEL", "peptide exchange yield": "20 to 50%"}
{"binder": "VLPAEFFEV", "peptide exchange yield": "50 to 75%"}
{"binder": "ILQDLTFVHL", "peptide exchange yield": "50 to 75%"}
{"binder": "ILLKTEGINL", "peptide exchange yield": "50 to 75%"}
{"binder": "VMILKLPFL", "peptide exchange yield": "20 to 50%"}
{"binder": "FMEPTLLML", "peptide exchange yield": "50 to 75%"}
{"binder": "ALDIMIPMV", "peptide exchange yield": "50 to 75%"}
{"binder": "ALVDPGPDFVV", "peptide exchange yield": "50 to 75%"}
{"binder": "ELMHGVAGV", "peptide exchange yield": "50 to 75%"}
{"binder": "QLDEPAPQV", "peptide exchange yield": "20 to 50%"}
{"binder": "LMKDCEAEV", "peptide exchange yield": "50 to 75%"}
